# system-tested: hNET (Homo sapiens)
# Sequence (P23975 whole entry): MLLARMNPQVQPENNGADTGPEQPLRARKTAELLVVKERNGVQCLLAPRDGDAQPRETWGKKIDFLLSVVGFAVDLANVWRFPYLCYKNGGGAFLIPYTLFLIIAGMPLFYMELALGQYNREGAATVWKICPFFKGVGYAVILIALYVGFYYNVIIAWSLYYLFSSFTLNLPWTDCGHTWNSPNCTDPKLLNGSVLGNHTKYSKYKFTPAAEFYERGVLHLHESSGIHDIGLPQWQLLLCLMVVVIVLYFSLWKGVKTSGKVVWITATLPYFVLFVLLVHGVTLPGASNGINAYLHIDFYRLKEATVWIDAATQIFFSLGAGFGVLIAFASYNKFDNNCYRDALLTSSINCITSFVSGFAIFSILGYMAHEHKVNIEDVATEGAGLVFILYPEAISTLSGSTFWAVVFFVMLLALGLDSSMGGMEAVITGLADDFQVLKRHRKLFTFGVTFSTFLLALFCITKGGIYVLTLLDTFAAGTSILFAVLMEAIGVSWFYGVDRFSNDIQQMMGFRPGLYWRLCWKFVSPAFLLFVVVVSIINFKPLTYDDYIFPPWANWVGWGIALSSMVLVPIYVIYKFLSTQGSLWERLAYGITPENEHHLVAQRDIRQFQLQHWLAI
# test-description: cell-based
Catalogue of log10 IC50 values
Answers are given as log10 of IC50 in µM.

Solved entries (count: 5):
compound: CCCCC(C(=O)c1ccc2c(c1)OCO2)N1CCCC1 (stereo not shown) [3,4-MDPHP]
system-tested: hNET (Homo sapiens)
log10 IC50: -1.33

compound: CCCCC(C(=O)c1ccc(C)cc1)N1CCCC1 (stereo not drawn) [4-Me-α-PHP, 4’-methyl-α–pyrrolidinohexanophenone]
system-tested: hNET (Homo sapiens)
log10 IC50: -1.38

compound: CCCCC(C(=O)c1ccc(F)cc1)N1CCCC1 (stereo not drawn) [4-F-α-PHP, 4’-fluoro-α–pyrrolidinohexanophenone]
system-tested: hNET (Homo sapiens)
log10 IC50: -0.66

compound: CNC(COC)C(=O)c1ccc(C)cc1 (stereo not shown) [Mexedrone]
system-tested: hNET (Homo sapiens)
log10 IC50: 0.50

compound: CCCC(Cc1ccccc1)N1CCCC1 (stereo not shown) [Prolintane, 1-[1-(phenylmethyl)butyl]-pyrrolidine]
system-tested: hNET (Homo sapiens)
log10 IC50: -1.34

Reported log10 IC50, compound CNC(C)Cc1ccc2c(c1)CCO2 (stereo not shown) [5-MAPDB] : ____
-0.25

Can you handle CC(C(=O)c1ccc(Cl)cc1)N1CCCC1 (stereo not drawn) [4-Cl-α-PPP, 4’-chloro-α-pyrrolidinopropiophenone] next?
0.15
